Where these numbers come from: patent US20170306005A1

- assaySystem: T1, mouse tenascin-C rCd4-His-FBG (rat; mouse, UniProt P05540 207-392, limits assumed)
- T1 construct: domain: domains 3 and 4; C-terminal FBG fusion; biotinylated in the ELISA screen; also called Mu TNC; mouse TNC rCd4-His-FBG; not shown: 6His tag
- T1 sequence (chain (part 1 of 2)): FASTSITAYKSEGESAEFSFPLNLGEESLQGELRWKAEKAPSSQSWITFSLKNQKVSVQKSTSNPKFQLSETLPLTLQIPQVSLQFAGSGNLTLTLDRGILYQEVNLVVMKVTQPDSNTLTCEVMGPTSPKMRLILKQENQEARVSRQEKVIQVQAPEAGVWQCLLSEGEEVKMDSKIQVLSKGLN
- T1 sequence (chain (part 2 of 2)): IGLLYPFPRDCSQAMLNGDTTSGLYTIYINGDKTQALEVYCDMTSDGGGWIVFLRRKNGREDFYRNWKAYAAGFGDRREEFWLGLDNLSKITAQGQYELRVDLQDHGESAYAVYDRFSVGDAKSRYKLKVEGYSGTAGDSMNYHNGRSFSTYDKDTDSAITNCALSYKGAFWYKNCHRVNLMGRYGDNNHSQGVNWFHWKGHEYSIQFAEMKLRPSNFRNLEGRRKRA
- testDescription: anti-FLAG capture ELISA, scFv supernatant
I'd be grateful if you could share measured fold improvement in binding over parent for these entries.

Q. Write down fold improvement in binding over parent measured for item 160_01_F1 scFv (scFv, V domains shown, not shown: small tags and cut ends, E. coli supernatant scFv) VH: EVRLVQSGAEVKKPGASVKVSCKVSGYTLTELSMHWVRQAPGKGLEWMGGFDPEDGETIYAQKFQGRVTMTEDTSTDTAYMELSSLRSEDTAVYYCATAQSPWSGMTYWGQGTLVTVSS VL: DIQMTQSPASLPTSVGDRVTITCRASQYIQGFLNWYQQKPGKAPRLLIYAASTLQDGVPSRFSGSGYGTDFTLTISSLQPEDFATYYCQQSYSTPWTFGQGTKVEIK
A. ≥ 10 fold

Q. Write down fold improvement in binding over parent measured for item 161_01_C09 scFv (scFv, V domains shown, not shown: small tags and cut ends, E. coli supernatant scFv) VH: EVRLVQSGAEVKKPGASVKVSCKVSGYTLTELSMHWVRQAPGKGLEWMGGFDPEDGETIYAQKFQGRVTMTEDTSTDTAYMELSSLRSEDTAVYYCATAQLPYLAQTYWGQGTLVTVSS VL: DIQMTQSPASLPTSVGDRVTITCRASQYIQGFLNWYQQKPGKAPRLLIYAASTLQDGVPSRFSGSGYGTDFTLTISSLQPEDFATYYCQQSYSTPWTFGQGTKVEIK
A. ≥ 10 fold

Q. Write down fold improvement in binding over parent measured for item 162_02_C1 scFv (scFv, V domains shown, not shown: small tags and cut ends, E. coli supernatant scFv) VH: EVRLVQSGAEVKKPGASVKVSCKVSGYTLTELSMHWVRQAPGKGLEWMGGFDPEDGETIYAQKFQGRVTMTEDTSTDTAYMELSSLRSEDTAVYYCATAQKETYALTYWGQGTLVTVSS VL: DIQMTQSPASLPTSVGDRVTITCRASQYIQGFLNWYQQKPGKAPRLLIYAASTLQDGVPSRFSGSGYGTDFTLTISSLQPEDFATYYCLHHYRAPWTFGQGTKVEIK
A. ≥ 10 fold
